# study_target: UniProtKB P18089
# Sequence (P18089 whole entry): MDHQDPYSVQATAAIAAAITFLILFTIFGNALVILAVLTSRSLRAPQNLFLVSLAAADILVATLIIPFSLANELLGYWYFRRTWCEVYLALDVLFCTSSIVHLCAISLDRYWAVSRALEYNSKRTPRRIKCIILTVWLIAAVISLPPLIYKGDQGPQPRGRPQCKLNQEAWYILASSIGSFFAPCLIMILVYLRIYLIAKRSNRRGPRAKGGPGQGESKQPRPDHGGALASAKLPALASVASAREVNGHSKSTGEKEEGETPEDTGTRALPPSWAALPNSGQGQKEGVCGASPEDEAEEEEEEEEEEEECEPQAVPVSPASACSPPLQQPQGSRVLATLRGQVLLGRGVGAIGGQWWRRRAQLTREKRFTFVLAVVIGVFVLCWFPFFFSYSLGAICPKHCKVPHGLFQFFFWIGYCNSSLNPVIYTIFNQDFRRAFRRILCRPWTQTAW
measure: AC50

# compound, measure, recorded_measurement
records = [
    ("COc1ccc2c(c1)C(=O)N(CCc1ccc(S(=O)(=O)NC(=O)NC3CCCCC3)cc1)C(=O)C2(C)C", "AC50", "> 30 µM"),
    ("COc1ccc2cccc(CCNC(C)=O)c2c1", "AC50", "> 10 µM"),
    ("C[C@H]1C[C@@H]2[C@H]([C@@H](O)C[C@@]3(C)[C@H]2CC[C@]3(O)C(=O)COC(=O)CCC(=O)O)[C@@]2(C)C=CC(=O)C=C12 [METHYLPREDNISOLONE HEMISUCCINATE]", "AC50", "> 30 µM"),
    ("CC/C=C\\C/C=C\\C/C=C\\CCCCCCCC(=O)O", "AC50", "> 30 µM"),
    ("CC(C(=O)O)c1ccc(N2CC=CC2)c(Cl)c1 (configuration not stated)", "AC50", "> 10 µM"),
]

input: Reported AC50 for CNC(=O)c1cc(Oc2ccc(NC(=O)Nc3ccc(Cl)c(C(F)(F)F)c3)cc2)ccn1 : what is it?
output: > 30 µM

input: Requested field: AC50. Item: CC1=CC(=O)c2ccccc2C1=O
output: > 10 µM

input: Reported AC50, compound CCCCOc1cc(C(=O)NCCN(CC)CC)c2ccccc2n1 : ____
output: > 10 µM

input: Query: AC50; subject: CN1C(=O)CC(c2ccccc2)C1=O (configuration not stated) [PHENSUXIMIDE]
output: > 10 µM

input: Consider the compound shown here: CN(C)[C@@H]1C(O)=C(C(N)=O)C(=O)[C@@]2(O)C(O)=C3C(=O)c4c(O)ccc(Cl)c4[C@@H](O)[C@H]3C[C@@H]12 What is its recorded AC50?
output: > 10 µM

input: Form field: reported AC50 of CN1C(=O)N(C)C2C1N(C)C(=O)N2C (configuration not stated)
output: > 30 µM

input: Can you share its AC50? I mean this compound: CC(=O)OCC(=O)[C@@]12OC3(CCCC3)O[C@@H]1C[C@H]1[C@@H]3CCC4=CC(=O)C=C[C@]4(C)[C@@]3(F)[C@@H](O)C[C@@]12C [AMCINONIDE]
output: > 10 µM

input: If you can, please state the reported AC50 value of CCOc1cc(N)c([N+](=O)[O-])cc1C(=O)NC1CCN(CC2CC=CCC2)CC1 (configuration not stated) [CINITAPRIDE] .
output: 9.3 µM

input: Record request: AC50 value, item O=C(Nc1ccccc1)OCC(CN1CCCCC1)OC(=O)Nc1ccccc1 (configuration not stated)
output: > 10 µM

input: Returns the measured AC50 for the input compound. Input: O=C(O)Cc1cn(-c2ccccc2)nc1-c1ccc(Cl)cc1
output: > 30 µM

input: Give the measured AC50 of NS(=O)(=O)c1cc(-c2nnn[nH]2)c(NCc2cccs2)cc1Cl [AZOSEMIDE] .
output: > 30 µM

input: Would you mind telling me what AC50 value was observed for C[C@@H]1O[C@@H]1P(=O)(O)O ?
output: > 10 µM

input: Which value of AC50 has been reported for CC(=O)N(CC(O)CO)c1c(I)c(C(=O)NCC(O)CO)c(I)c(C(=O)NCC(O)CO)c1I (configuration not stated) [IOHEXOL] in the records?
output: > 10 µM

input: Please give the measured AC50 for this compound: Cc1ccc(-c2nc3ccc(C)cn3c2CC(=O)N(C)C)cc1
output: > 30 µM

input: Return reported AC50; argument: CCC1(C2=CCCCCC2)C(=O)NC(=O)NC1=O
output: > 10 µM

input: Consider the compound CC(C)(N)Cc1ccc(Cl)cc1 and give its measured AC50.
output: > 10 µM
